biological target: CDK13/Cyclin K (Homo sapiens, UniProt Q14004); assay: NanoBRET live-cell target engagement, CDK13-NanoLuc/Cyclin K in HEK-293; assay type: binding; conditions: 10µM; average of experiments
Sequence (O75909 whole entry): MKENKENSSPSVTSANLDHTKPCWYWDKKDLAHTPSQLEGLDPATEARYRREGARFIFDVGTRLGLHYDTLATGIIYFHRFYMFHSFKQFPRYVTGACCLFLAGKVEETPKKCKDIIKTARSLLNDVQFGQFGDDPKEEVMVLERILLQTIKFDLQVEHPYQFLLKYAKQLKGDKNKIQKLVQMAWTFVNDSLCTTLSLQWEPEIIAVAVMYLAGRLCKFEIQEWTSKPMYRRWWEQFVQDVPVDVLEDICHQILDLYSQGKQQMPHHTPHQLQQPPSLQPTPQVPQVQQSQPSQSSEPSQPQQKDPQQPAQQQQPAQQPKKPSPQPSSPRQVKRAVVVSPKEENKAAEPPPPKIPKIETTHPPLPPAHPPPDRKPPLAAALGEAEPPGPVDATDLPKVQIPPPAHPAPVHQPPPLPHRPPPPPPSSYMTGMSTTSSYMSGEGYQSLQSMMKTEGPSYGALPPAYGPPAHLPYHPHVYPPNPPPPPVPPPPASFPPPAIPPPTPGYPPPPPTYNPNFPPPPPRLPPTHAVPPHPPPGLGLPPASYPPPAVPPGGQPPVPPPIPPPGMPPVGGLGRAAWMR
Sequence (Q14004 other isoform, or with tags, fused parts or gaps): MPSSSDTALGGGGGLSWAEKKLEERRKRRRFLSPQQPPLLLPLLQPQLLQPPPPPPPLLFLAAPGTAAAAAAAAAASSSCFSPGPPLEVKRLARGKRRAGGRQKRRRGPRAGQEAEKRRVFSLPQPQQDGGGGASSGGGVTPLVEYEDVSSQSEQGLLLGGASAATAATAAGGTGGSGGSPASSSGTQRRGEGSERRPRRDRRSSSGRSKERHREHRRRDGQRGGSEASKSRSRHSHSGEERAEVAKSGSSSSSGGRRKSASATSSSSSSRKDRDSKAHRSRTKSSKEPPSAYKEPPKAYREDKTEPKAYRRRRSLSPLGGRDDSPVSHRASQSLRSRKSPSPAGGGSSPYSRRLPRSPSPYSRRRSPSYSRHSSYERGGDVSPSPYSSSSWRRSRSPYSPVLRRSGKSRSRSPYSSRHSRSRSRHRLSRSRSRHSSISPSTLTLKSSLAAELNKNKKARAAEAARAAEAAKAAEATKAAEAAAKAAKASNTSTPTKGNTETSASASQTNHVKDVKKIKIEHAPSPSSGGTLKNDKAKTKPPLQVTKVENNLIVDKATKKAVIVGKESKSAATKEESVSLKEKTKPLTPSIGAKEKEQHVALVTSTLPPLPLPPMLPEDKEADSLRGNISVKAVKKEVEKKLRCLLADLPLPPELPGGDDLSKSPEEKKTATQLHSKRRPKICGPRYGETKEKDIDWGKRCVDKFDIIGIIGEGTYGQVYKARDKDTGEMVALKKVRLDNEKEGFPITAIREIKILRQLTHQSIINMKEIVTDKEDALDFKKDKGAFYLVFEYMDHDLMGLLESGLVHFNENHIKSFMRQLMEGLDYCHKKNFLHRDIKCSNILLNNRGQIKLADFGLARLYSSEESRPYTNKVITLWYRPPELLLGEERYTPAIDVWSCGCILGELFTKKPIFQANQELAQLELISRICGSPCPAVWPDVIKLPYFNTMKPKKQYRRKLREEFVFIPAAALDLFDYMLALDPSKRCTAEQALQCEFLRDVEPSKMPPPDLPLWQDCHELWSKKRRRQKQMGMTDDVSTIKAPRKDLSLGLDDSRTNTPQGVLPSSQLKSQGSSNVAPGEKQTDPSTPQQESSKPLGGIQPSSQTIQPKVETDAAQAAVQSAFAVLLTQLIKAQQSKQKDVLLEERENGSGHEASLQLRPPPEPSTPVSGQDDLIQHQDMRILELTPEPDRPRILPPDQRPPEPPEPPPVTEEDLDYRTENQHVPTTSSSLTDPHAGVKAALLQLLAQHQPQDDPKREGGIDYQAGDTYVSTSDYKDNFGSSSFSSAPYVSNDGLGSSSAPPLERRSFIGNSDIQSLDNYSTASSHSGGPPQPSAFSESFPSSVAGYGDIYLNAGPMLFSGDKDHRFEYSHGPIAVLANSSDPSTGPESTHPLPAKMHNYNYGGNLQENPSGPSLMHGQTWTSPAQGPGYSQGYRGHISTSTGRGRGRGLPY
// CDK13/K Inhibition at 10µM (%) lookup, one value per entry
MEASURED QUANTITY: CDK13/K Inhibition at 10µM (%)

O=C1NC(=NCc2cccs2)S/C1=C\c1ccc2ncccc2c1 = 7.2%
Cc1c(Br)c(Br)c2c3c1nc(N1CCNCC1)n3CCC2.Cl [SEL 120-34A] = 36.8%
CN(C)C/C=C/C(=O)Nc1ccc(C(=O)Nc2cccc(Nc3ncc(Cl)c(-c4c[nH]c5ccccc45)n3)c2)cc1 = 48.1%
O=C1NCCc2[nH]c(-c3ccncc3)cc21 = 11.6%

* * *

biological target: CDK16/Cyclin Y (Homo sapiens, UniProt Q00536); experiment: NanoBRET live-cell target engagement, CDK16-NanoLuc/Cyclin Y in HEK-293; assay type: binding; settings: CDK16/Y; experiment 3; read-out: IC50
Sequence (Q00536 whole entry): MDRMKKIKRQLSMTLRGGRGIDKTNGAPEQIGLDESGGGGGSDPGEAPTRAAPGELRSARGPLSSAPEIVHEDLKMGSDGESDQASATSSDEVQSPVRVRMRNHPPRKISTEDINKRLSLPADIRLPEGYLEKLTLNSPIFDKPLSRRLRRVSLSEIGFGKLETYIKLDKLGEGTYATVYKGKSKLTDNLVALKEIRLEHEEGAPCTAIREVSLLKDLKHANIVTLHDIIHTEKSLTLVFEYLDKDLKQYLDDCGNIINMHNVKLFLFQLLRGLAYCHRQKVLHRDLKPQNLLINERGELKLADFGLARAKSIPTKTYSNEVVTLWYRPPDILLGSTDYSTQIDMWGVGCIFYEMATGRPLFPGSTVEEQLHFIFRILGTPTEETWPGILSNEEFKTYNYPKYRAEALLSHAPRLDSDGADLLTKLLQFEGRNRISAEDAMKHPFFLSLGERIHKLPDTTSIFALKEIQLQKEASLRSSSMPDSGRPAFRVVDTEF
Sequence (Q8ND76 whole entry partner): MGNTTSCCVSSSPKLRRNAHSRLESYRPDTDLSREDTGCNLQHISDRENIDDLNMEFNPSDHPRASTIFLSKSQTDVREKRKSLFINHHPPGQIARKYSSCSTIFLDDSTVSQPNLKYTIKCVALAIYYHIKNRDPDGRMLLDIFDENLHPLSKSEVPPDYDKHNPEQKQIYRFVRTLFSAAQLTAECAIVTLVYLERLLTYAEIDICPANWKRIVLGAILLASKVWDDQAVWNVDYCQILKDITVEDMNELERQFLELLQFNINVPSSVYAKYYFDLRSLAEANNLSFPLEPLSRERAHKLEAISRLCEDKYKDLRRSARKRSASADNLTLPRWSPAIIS
// IC50 lookup, one value per entry
MEASURED QUANTITY: IC50 (nM)

COc1ccc(F)cc1-c1cc(NC(=O)C2CCCNC2)ncc1Cl (centres unmarked) [CDK inhibitor 2] = 117
CN1CCN(Cc2ccc(NC(=O)Nc3ccc(Oc4ccnc(N)n4)cc3)cc2C(F)(F)F)CC1 [K03861] = 270
CN1CCN(c2ccc(Nc3ncc4cc(C#N)c(=O)n(C5CCCC5)c4n3)cc2)CC1 [ON123300] = 48
CC(C)c1cnn2c(NCc3ccccc3-n3cccn3)nc(OC3CCCNC3)nc12 (centres unmarked) [LDC4297] = 428
CNC(=O)c1nn(C)c2c1C(C)(C)Cc1cnc(Nc3ccc(N4CCN(C)CC4)cc3)nc1-2 [Milciclib] = 273

* * *

molecular target: CDK13/Cyclin K (Homo sapiens); test: NanoBRET live-cell target engagement, CDK13-NanoLuc/Cyclin K in HEK-293; type: binding; conditions: 10µM; independent experiment 1; read-out: CDK13/K Inhibition at 10µM (%)
// inhibition at 10 µM lookup, one value per entry
MEASURED QUANTITY: inhibition at 10 µM (%)

CC(C)CC(=O)Nc1[nH]nc2c1CN(C(=O)C1CCN(C)CC1)C2(C)C = 23.7
CC(C)[C@H](CO)Nc1nc(Nc2ccc(C(=O)O)c(Cl)c2)c2ncn(C(C)C)c2n1 = 3
CN(C)C(=O)c1cc2cnc(Nc3ccc(N4CCNCC4)cn3)nc2n1C1CCCC1 = 8
CN1C/C=C/CCOc2cccc(c2)-c2ccnc(n2)Nc2cccc(c2)C1 = 47.7

* * *

// IC50 lookup, one value per entry
target: CDK3/Cyclin E1 (Homo sapiens); experiment: NanoBRET live-cell target engagement, CDK3-NanoLuc/Cyclin E1 in HEK-293; assay type: binding; details: CDK3/E1; n=3 average ± SEM, n=2 average to 2 significant figures; read-out: IC50 (nM) Average*
Sequence (Q00526 whole entry): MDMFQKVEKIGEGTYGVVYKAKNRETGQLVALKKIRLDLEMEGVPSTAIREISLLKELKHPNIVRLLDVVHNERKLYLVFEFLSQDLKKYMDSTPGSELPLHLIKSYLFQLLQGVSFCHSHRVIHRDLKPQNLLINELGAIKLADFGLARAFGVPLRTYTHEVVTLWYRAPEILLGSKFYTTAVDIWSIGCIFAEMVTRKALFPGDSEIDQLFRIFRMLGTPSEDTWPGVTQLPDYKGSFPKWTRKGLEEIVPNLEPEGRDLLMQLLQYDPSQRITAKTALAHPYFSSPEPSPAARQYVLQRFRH
Sequence (P24864 whole entry partner): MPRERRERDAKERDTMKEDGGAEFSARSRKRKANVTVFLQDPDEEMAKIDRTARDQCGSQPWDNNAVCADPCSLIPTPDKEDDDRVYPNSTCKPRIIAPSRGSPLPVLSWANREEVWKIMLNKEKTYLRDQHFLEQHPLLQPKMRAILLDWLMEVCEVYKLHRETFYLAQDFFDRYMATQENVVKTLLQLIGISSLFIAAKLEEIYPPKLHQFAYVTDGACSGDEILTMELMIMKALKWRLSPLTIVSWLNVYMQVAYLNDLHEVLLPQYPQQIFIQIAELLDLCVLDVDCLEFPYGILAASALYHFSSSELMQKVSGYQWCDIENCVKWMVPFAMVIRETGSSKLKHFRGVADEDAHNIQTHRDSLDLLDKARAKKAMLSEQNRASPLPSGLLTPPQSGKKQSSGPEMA
MEASURED QUANTITY: IC50 (nM)

CC(C)c1cnn2c(NCc3ccccc3)cc(N[C@@H](CO)[C@H](O)CO)nc12 [BS-194] = 7.8
CNC1CCN(C(=O)c2ccc(Nc3ncc(F)c(-c4cnc(C)n4C(C)C)n3)cc2)C1 (centres unmarked) [AZD5597] = 3.4

* * *

// Inhibition at 10µM (%) lookup, one value per entry
target: CDK14/Cyclin Y (Homo sapiens); assay: NanoBRET live-cell target engagement, CDK14-NanoLuc/Cyclin Y in HEK-293; assay type: binding; conditions: CDK14/Y; experiment 2
Sequence (O94921 whole entry): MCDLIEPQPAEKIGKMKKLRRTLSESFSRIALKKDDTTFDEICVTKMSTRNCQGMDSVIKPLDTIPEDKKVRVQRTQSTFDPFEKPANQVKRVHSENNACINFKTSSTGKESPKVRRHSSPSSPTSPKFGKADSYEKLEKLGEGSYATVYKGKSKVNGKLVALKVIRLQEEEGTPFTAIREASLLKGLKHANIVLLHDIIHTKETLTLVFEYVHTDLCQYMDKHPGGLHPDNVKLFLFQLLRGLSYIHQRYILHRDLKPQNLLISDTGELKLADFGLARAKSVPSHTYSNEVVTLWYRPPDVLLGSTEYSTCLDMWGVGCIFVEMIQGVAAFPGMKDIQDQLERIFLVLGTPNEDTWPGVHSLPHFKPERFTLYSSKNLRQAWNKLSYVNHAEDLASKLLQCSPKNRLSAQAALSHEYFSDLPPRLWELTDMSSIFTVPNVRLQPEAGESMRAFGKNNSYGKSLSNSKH
Sequence (Q8ND76 whole entry partner): as the sequence (Q8ND76 whole entry partner) above
MEASURED QUANTITY: Inhibition at 10µM (%)

CC(C)c1c2cc(-c3ccnc(N[C@H]4CC[C@H](NC5CCOCC5)CC4)n3)ccc2nn1C = 90.9
CS(=O)(=O)N1CCC(NC(=O)c2[nH]ncc2NC(=O)c2c(Cl)cccc2Cl)CC1 = 89.6
CC(C)c1cnn2c(NCc3ccccc3-n3cccn3)nc(OC3CCCNC3)nc12 (stereo not drawn) = 89.3
CCn1cnc2c(Nc3cccc(Cl)c3)nc(N[C@@H]3CCCC[C@@H]3N)nc21 [CGP74514A] = 67.6
CNc1nc(C)c(-c2nc(Nc3cccc(S(N)(=O)=O)c3)ncc2F)s1 = 91.8
CN1CCC(c2c(O)cc(O)c3c(=O)cc(-c4ccccc4Cl)oc23)C1CO (stereo not drawn) = 50.7
